EXPERIMENTAL PROTOCOL: In vitro metabolism rate determination, rat liver microsome (RLM) assay
Format: in vitro ADME
MEASUREMENT PARAMETERS: rat liver microsomes, substrate 1 μM; read-out: RLM (intrinsic clearance)
MEASURED ENDPOINT: microsomal CLint at 1 μM (µL/min/mg)
Answer with a number only, understood to be in µL/min/mg.

Form field microsomal CLint at 1 μM, entry CC1CN(C(=O)C2CN(c3cncc(F)c3)CC2c2ccc(Cl)cn2)CC(C)C1(O)c1ccc(F)cc1 (centres unmarked) [Example 25] : 172

response.value for CC1CN(C(=O)C2CN(c3ccc(=O)[nH]n3)CC2c2ccc(Cl)cn2)CC(C)C1(O)c1ccccc1 (centres unmarked) [Example 27] (field: microsomal CLint at 1 μM) = 31

Per the record, C[C@@H]1CN(C(=O)[C@@H]2CN(c3ccc(C#N)nn3)C[C@H]2c2ccc(Cl)cn2)C[C@H](C)[C@@]1(O)c1ccccc1 [Example 29] has microsomal CLint at 1 μM of 36

// sample C[C@@H]1CN(C(=O)[C@@H]2CN(c3cccnn3)C[C@H]2c2ccc(Cl)cn2)C[C@H](C)[C@@]1(O)c1ccccn1 [Example 9] , its microsomal CLint at 1 μM was 411
